Test: Displacement of [3H]epibatidine from Torpedo californica muscle-type nAChR after 90 mins by liquid scintillation counting
Format: tissue-based, Tetronarce californica
PROPERTY: Ki (nM)
Your answer is read as nM, so omit the unit and give the number.

Below: 2 compounds and their reported Ki.
COMPOUND: CC[C@@H]1C[N+]2(C)CC[C@@]34c5ccccc5N5/C=C6/[C@H]7C[C@H]8[C@@]9(CC[N+]8(C)C[C@H]7CCO)c7ccccc7N(/C=C(/[C@H]1C[C@@H]32)[C@H]54)[C@@H]69 (some centres undefined)
REPORTED: 455

COMPOUND: CC[C@@H]1C[N+]2(Cc3ccc([N+](=O)[O-])cc3)CC[C@@]34c5ccccc5N5/C=C6/[C@H]7C[C@H]8[C@@]9(CC[N+]8(Cc8ccc([N+](=O)[O-])cc8)C[C@H]7CCO)c7ccccc7N(/C=C(/[C@H]1C[C@@H]32)[C@H]54)[C@@H]69 (some centres undefined)
REPORTED: 290

Here is another compound to look at.
GET /value?item= CC[C@@H]1C[N+]2(Cc3ccc([N+](=O)[O-])cc3)CC[C@@]34c5ccccc5N5/C=C6/[C@H]7C[C@H]8[C@@]9(CC[N+]8(Cc8ccc([N+](=O)[O-])cc8)C[C@H]7CC)c7ccccc7N(/C=C(/[C@H]1C[C@@H]32)[C@H]54)[C@@H]69 (some centres undefined) &field=Ki returns 81.9

---

Molecular target: Muscarinic acetylcholine receptor M2 (Sus scrofa, UniProt P06199)
Sequence (P06199 whole entry): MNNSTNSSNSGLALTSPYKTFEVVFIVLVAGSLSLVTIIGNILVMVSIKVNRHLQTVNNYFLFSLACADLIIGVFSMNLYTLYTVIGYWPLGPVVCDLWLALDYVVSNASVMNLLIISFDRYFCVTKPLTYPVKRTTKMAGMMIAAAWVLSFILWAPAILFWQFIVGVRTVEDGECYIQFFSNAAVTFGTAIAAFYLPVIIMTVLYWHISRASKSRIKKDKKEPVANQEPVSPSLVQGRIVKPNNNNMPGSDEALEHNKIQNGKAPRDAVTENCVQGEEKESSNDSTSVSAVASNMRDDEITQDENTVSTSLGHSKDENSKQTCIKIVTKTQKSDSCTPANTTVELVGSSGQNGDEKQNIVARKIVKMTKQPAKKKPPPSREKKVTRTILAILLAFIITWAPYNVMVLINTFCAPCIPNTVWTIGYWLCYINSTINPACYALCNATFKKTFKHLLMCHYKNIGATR
Assay: Displacement of [3H]NMS from pig muscarinic M2 receptor after 120 mins by liquid scintillation counting
PROPERTY: EC50
Answer by giving the amount and then stating its unit.

MOLECULE: CC[C@@H]1C[N+]2(C)CC[C@@]34c5ccccc5N5/C=C6/[C@H]7C[C@H]8[C@@]9(CC[N+]8(C)C[C@H]7CC)c7ccccc7N(/C=C(/[C@H]1C[C@@H]32)[C@H]54)[C@@H]69 (stereo partly drawn)
REPORTED: 260 nM

MOLECULE: C=CC[N+]12CC[C@@]34c5ccccc5N5/C=C6/[C@H]7C[C@H]8[C@@]9(CC[N+]8(CC=C)C[C@H]7CC)c7ccccc7N(/C=C(/[C@@H](C[C@@H]31)[C@H](CC)C2)[C@H]54)[C@@H]69 (stereo partly drawn)
REPORTED: 36 nM

--- query ---
Log: Muscarinic acetylcholine receptor M2 (Sus scrofa, UniProt P06199), molecule `CC[C@@H]1CN2CC[C@@]34c5ccccc5N5/C=C6/[C@H]7C[C@@H]8N(CC[C@@]89c8ccccc8N(/C=C(/[C@H]1C[C@H]23)[C@H]54)[C@@H]69)C[C@H]7CCO` , EC50 = 410 nM

---

Target: Neuronal acetylcholine receptor subunit alpha-7 (Homo sapiens, UniProt P36544)
Sequence (P36544 whole entry): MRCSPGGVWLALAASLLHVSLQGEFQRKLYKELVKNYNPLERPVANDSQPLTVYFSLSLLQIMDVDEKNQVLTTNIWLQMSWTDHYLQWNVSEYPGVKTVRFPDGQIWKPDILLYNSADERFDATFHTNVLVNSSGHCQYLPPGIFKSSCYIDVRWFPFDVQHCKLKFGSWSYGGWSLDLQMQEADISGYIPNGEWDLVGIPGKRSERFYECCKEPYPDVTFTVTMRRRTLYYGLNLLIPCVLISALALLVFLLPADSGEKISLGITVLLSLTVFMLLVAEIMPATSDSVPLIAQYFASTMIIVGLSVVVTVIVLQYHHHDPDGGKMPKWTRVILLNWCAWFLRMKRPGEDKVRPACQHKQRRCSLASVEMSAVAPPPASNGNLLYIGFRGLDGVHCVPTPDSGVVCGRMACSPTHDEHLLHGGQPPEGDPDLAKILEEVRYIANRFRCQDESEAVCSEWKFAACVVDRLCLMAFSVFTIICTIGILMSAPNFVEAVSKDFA
Test: Antagonist activity at human alpha7 nAChR expressed in GH3 cells by Ca2+/Fluo-4 assay
Format: cell-based
Settings: read-out: IC50
PROPERTY: pIC50
// pIC50 here means minus log10 of the molar concentration (mol/L)

MOLECULE: CC[C@@H]1C[N+]2(C)CC[C@@]34c5ccccc5N5/C=C6/[C@H]7C[C@H]8[C@@]9(CC[N+]8(C)C[C@H]7CC)c7ccccc7N(/C=C(/[C@H]1C[C@@H]32)[C@H]54)[C@@H]69 (stereo partly drawn)
REPORTED: 6.09

MOLECULE: CC[C@@H]1C[N+]2(Cc3ccc([N+](=O)[O-])cc3)CC[C@@]34c5ccccc5N5/C=C6/[C@H]7C[C@H]8[C@@]9(CC[N+]8(Cc8ccc([N+](=O)[O-])cc8)C[C@H]7CCO)c7ccccc7N(/C=C(/[C@H]1C[C@@H]32)[C@H]54)[C@@H]69 (stereo partly drawn)
REPORTED: 5.38

// switching to the query molecule
Value of measured pIC50 for the entry CC[C@@H]1C[N+]2(C)CC[C@@]34c5ccccc5N5/C=C6/[C@H]7C[C@H]8[C@@]9(CC[N+]8(C)C[C@H]7CCO)c7ccccc7N(/C=C(/[C@H]1C[C@@H]32)[C@H]54)[C@@H]69 (stereo partly drawn) : 6.23

---

The reader will find reported EC50 values listed item by item below.
Target: Muscarinic acetylcholine receptor M2 (Sus scrofa, UniProt P06199)
Assay: Displacement of [3H]NMS from pig muscarinic M2 receptor after 120 mins by liquid scintillation counting
Return type: number; implicit unit nM.

Answered cases to consult:
MOLECULE: C=CC[N@@+]12CC[C@@]34c5ccccc5N5/C=C6/[C@H]7C[C@H]8[C@@]9(CC[N@@+]8(CC=C)C/C7=C/CO)c7ccccc7N(/C=C(/[C@@H](C[C@@H]31)/C(=C\CO)C2)[C@H]54)[C@@H]69
UNIT_SYMBOL: nM
EC50: 2
//
MOLECULE: CC[C@@H]1C[N+]2(C)CC[C@@]34c5ccccc5N5/C=C6/[C@H]7C[C@H]8[C@@]9(CC[N+]8(C)C[C@H]7CCO)c7ccccc7N(/C=C(/[C@H]1C[C@@H]32)[C@H]54)[C@@H]69 (stereo not given in full)
UNIT_SYMBOL: nM
EC50: 320
//
MOLECULE: CC[C@@H]1CN2CC[C@@]34c5ccccc5N5/C=C6/[C@H]7C[C@@H]8N(CC[C@@]89c8ccccc8N(/C=C(/[C@H]1C[C@H]23)[C@H]54)[C@@H]69)C[C@H]7CC
UNIT_SYMBOL: nM
EC50: 500

Sample C=CC[N+]12CC[C@@]34c5ccccc5N5/C=C6/[C@H]7C[C@H]8[C@@]9(CC[N+]8(CC=C)C[C@H]7CCO)c7ccccc7N(/C=C(/[C@@H](C[C@@H]31)[C@H](CC)C2)[C@H]54)[C@@H]69 (stereo not given in full) ; EC50 observed: 12

EC50 measured on C=CC[N+]12CC[C@@]34c5ccccc5N5[C@@H]6OC=C7C[N+]8(CC=C)CC[C@]9%10c%11ccccc%11N([C@@H]%11OCC=C(C1)[C@H](C[C@@H]32)[C@@H]%11[C@H]54)[C@H]9[C@H]6[C@H]7C[C@@H]%108 (stereo not given in full) = 11

# molecule CC[C@@H]1C[N+]2(Cc3ccc([N+](=O)[O-])cc3)CC[C@@]34c5ccccc5N5/C=C6/[C@H]7C[C@H]8[C@@]9(CC[N+]8(Cc8ccc([N+](=O)[O-])cc8)C[C@H]7CC)c7ccccc7N(/C=C(/[C@H]1C[C@@H]32)[C@H]54)[C@@H]69 (stereo not given in full) ; its EC50 = 49

Measured EC50 of C[N+]12CC[C@@]34c5ccccc5N5/C=C6/[C@H]7C[C@H]8[C@@]9(CC[N+]8(C)C/C7=C/CO)c7ccccc7N(/C=C(/[C@@H](C[C@@H]31)/C(=C\CO)C2)[C@H]54)[C@@H]69 (stereo not given in full) : 96

Entry C[N+]12CC[C@@]34c5ccccc5N5[C@@H]6OC=C7C[N+]8(C)CC[C@]9%10c%11ccccc%11N([C@@H]%11OCC=C(C1)[C@H](C[C@@H]32)[C@@H]%11[C@H]54)[C@H]9[C@H]6[C@H]7C[C@@H]%108 (stereo not given in full) ; EC50 = 8

Sample `C1=C2CN3CC[C@]45c6ccccc6N6[C@@H]7OCC=C8CN9CC[C@]%10%11c%12ccccc%12N([C@H](OC1)[C@@H]([C@H]64)[C@H]2C[C@H]35)[C@H]%10[C@H]7[C@H]8C[C@H]9%11` ; EC50 observed: 436

The reported value for CC[C@@H]1C[N+]2(Cc3ccc([N+](=O)[O-])cc3)CC[C@@]34c5ccccc5N5/C=C6/[C@H]7C[C@H]8[C@@]9(CC[N+]8(Cc8ccc([N+](=O)[O-])cc8)C[C@H]7CCO)c7ccccc7N(/C=C(/[C@H]1C[C@@H]32)[C@H]54)[C@@H]69 (stereo not given in full) in terms of EC50 is 32

---

Experiment: Displacement of [3H]epibatidine from Torpedo californica muscle-type nAChR after 90 mins by liquid scintillation counting
Type: tissue-based, Tetronarce californica
Below, each entry is listed alongside its reported log10 of Ki.
Base-10 log of Ki, unit nM.

Record excerpt, results attached:
MOLECULE: C=CC[N@@+]12CC[C@@]34c5ccccc5N5/C=C6/[C@H]7C[C@H]8[C@@]9(CC[N@@+]8(CC=C)C/C7=C/CO)c7ccccc7N(/C=C(/[C@@H](C[C@@H]31)/C(=C\CO)C2)[C@H]54)[C@@H]69 [ALCURONIUM]
REPORTED: 2.37
--
MOLECULE: C[N+]12CC[C@@]34c5ccccc5N5/C=C6/[C@H]7C[C@H]8[C@@]9(CC[N+]8(C)C/C7=C/CO)c7ccccc7N(/C=C(/[C@@H](C[C@@H]31)/C(=C\CO)C2)[C@H]54)[C@@H]69 (stereo not given in full)
REPORTED: 1.15
--
MOLECULE: C=CC[N+]12CC[C@@]34c5ccccc5N5/C=C6/[C@H]7C[C@H]8[C@@]9(CC[N+]8(CC=C)C[C@H]7CC)c7ccccc7N(/C=C(/[C@@H](C[C@@H]31)[C@H](CC)C2)[C@H]54)[C@@H]69 (stereo not given in full)
REPORTED: 1.88
--
MOLECULE: CC[C@@H]1CN2CC[C@@]34c5ccccc5N5/C=C6/[C@H]7C[C@@H]8N(CC[C@@]89c8ccccc8N(/C=C(/[C@H]1C[C@H]23)[C@H]54)[C@@H]69)C[C@H]7CC
REPORTED: 2.83

Turning now to a further record.
molecule CC[C@@H]1C[N+]2(C)CC[C@@]34c5ccccc5N5/C=C6/[C@H]7C[C@H]8[C@@]9(CC[N+]8(C)C[C@H]7CC)c7ccccc7N(/C=C(/[C@H]1C[C@@H]32)[C@H]54)[C@@H]69 (stereo not given in full) , log10 of Ki observed: 2.18
